- system-under-test: Muscarinic acetylcholine receptor M2 (Homo sapiens, UniProt P08172)
- Sequence (P08172 whole entry): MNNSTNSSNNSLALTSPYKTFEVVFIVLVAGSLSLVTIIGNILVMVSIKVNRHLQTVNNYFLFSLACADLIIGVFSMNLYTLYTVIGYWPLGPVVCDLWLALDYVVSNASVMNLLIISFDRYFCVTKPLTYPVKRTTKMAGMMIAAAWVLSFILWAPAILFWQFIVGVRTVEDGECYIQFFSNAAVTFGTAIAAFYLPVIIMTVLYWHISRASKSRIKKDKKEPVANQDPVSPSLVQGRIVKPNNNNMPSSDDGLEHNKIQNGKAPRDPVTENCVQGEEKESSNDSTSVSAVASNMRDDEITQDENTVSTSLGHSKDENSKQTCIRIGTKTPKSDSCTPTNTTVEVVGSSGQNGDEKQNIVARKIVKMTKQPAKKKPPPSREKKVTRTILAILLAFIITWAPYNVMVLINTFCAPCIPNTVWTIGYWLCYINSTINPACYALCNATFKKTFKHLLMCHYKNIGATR
measurement-label: pKi
To interpret pKi, take it as minus log10 of a concentration measured in moles per litre.

// solved cases for pKi follow
> print(dat)
                                   molecule                         system.under.test  numeric.readout
1  CC[C@H]1COC[C@@H](C[N+](C)(C)C)O1.[I-] (relative stereo)  Muscarinic acetylcholine receptor M2 (Homo sapiens, UniProt P08172)             5.20
2  CN(C)C[C@H]1COCC(c2ccccc2)(c2ccccc2)O1.O=C(O)C(=O)O  Muscarinic acetylcholine receptor M2 (Homo sapiens, UniProt P08172)             8.01
3  CN(C)C[C@@H]1COCC(c2ccccc2)(c2ccccc2)O1.O=C(O)C(=O)O  Muscarinic acetylcholine receptor M2 (Homo sapiens, UniProt P08172)             7.02
4  C[N+](C)(C)CC1COCC(c2ccccc2)(c2ccccc2)O1.[I-] (racemic)  Muscarinic acetylcholine receptor M2 (Homo sapiens, UniProt P08172)             8.24
5  CC[C@@H]1COC[C@@H](C[N+](C)(C)C)O1.[I-] (relative stereo)  Muscarinic acetylcholine receptor M2 (Homo sapiens, UniProt P08172)             4.74

Task: Returns the measured pKi for the input molecule. Input: CN(C)CC1COCC(c2ccccc2)(c2ccccc2)O1.O=C(O)C(=O)O (racemic)
Result: 7.78

Task: Returns the measured pKi for the input molecule. Input: "C[N+](C)(C)C[C@@H]1COCC(c2ccccc2)(c2ccccc2)O1.[I-]"
Result: 7.48

Task: Returns the measured pKi for the input molecule. Input: C[N+](C)(C)C[C@@H]1COC[C@@H](C(c2ccccc2)c2ccccc2)O1 (relative stereo)
Result: 4.10

Task: Returns the measured pKi for the input molecule. Input: "C[N+](C)(C)C[C@H]1COCC(c2ccccc2)(c2ccccc2)O1.[I-]"
Result: 8.55

Task: Returns the measured pKi for the input molecule. Input: C[N+](C)(C)C[C@@H]1COC[C@H](C(c2ccccc2)c2ccccc2)O1 (relative stereo)
Result: 4.55

Source listed as ChEMBL document CHEMBL2040723.
